ASSAY_METHOD_TEXT: resazurin metabolic signal in A549 cells – cell-based, resazurin fluorescence, 24 h, PK04 Diversity Set, profiling panel (AID 1171); note: test concentration not given here
CONDITION_INFO: A549 viability, higher = more signal, called active from +8 up or from −8 down
Doc: threshold -0.4 (exclusive). Items with z-score beneath it return True; others return False.

| COMPOUND | LABEL_VALUE |
| --- | --- |
| NC(=O)NCC#Cc1ccc2c(c1)[C@]1(C(=O)N2)[C@H](c2ccc(O)cc2)N2[C@H](c3ccccc3)[C@H](c3ccccc3)OC(=O)[C@H]2[C@@H]1C(=O)N1CCN(c2ncccn2)CC1 | False |
| CO[C@H]1O[C@H](CO)[C@@H](OC(=O)Nc2cccc(F)c2)[C@H](OC(=O)Nc2ccccc2-c2ccccc2)[C@@H]1OC(=O)Nc1ccccc1-c1ccccc1 | True |
| COC(=O)[C@@]1(Cc2ccccc2)[C@H]2c3cc(C(=O)N(C)C)n(Cc4cc(F)c(F)c(F)c4)c3C[C@H]2CN1C(=O)c1ccccc1 | False |
| CO[C@H]1O[C@H](CO)[C@@H](OC(=O)Nc2ccccc2-c2ccccc2)[C@H](OC(=O)Nc2ccccc2-c2ccccc2)[C@H]1OC(=O)Nc1ccccc1-c1ccccc1 | True |
| CO[C@H]1O[C@H](CO)[C@@H](OC(=O)Nc2ccc(C(F)(F)F)cc2)[C@H](OC(=O)Nc2ccccc2)[C@@H]1OC(=O)Nc1ccccc1 | False |
| COc1c(C)cc(-c2cc3c(c(-c4ccccc4)n2)[Si](C(C)C)(C(C)C)O[C@H]3c2ccccc2)cc1C | False |
| C=CCC(OC(C)=O)[C@@H]1[C@@H](N(Cc2ccc(-c3ccccc3)cc2)C(=O)c2ccc(C)cc2)c2cc(OCCCO)ccc2N1C(=O)Cc1ccc(OC)cc1 (stereo partly drawn) | False |
| O=C1c2ccccc2[C@@]2(Cc3ccccc3N(Cc3ccccc3)C2=O)[C@H](c2ccc(CO)cc2)N1Cc1ccccc1C(F)(F)F | True |
| CC(C)CNC(=O)[C@@]1(C)c2ccccc2C(=O)N(C(C)C)[C@H]1c1ccc(CO)cc1 | False |
| O=C1C[C@@](C(=O)O)(c2ccc([N+](=O)[O-])cc2)[C@@H](c2ccc(CO)cc2I)N1C1CCCCC1 | False |
| CC(c1ccccc1)C(O)C1C=CC2C(=O)N(Cc3ccccc3)C(=O)C2N1n1cnnc1 (stereo not drawn) | True |
| COc1ccc(C#Cc2ccc3c(c2)[C@]2(C(=O)N3)[C@H](C(=O)N3CCN(c4ncccn4)CC3)[C@H]3C(=O)O[C@H](c4ccccc4)[C@H](c4ccccc4)N3[C@@H]2c2ccc(O)cc2)cc1 | False |

====

ASSAY_METHOD_TEXT: resazurin metabolic signal in A549 cells – cell-based, resazurin fluorescence, 24 h, PK04 Diversity Set, profiling panel (AID 1171); note: test concentration not given here
CONDITION_INFO: A549 viability, higher = more signal, called active from +8 up or from −8 down
Listing: z-score of selected compounds

| COMPOUND | z-score |
| --- | --- |
| CCCCN1CC=CC23O[C@@H]4/C=C\CCCOC(=O)C4[C@H]2C(=O)N(C(C)CO)[C@@H]3C1=O (stereo partly specified) | -0.249 |
| [N-]=[N+]=NCc1ccccc1[C@@H]1OC(c2ccc(OCCCO)cc2)=N[C@]1(Cc1ccccc1N=[N+]=[N-])C(N)=O | -0.139 |
| C=CCOC(=O)[C@H]1[C@@H]2C(=O)O[C@@H](c3ccccc3)[C@@H](c3ccccc3)N2[C@@H](c2ccc(OCCOC(=O)[C@@H]3C[C@@H]4C(=O)NCC(=O)N4[C@@H]3c3ccc(O)cc3)cc2)[C@]12C(=O)Nc1ccc(I)cc12 | -0.148 |
| CCCNC(=O)[C@@]1(C)c2ccccc2C(=O)N(Cc2cc(F)cc(C(F)(F)F)c2)[C@H]1c1ccc(CO)cc1 | 1.79 |
| COCCOC(=O)N1C(=O)[C@@]2(c3cc(C#CCC(C(=O)OC)C(=O)OC)ccc31)[C@H](c1ccc(OCCO)cc1)N1[C@H](c3ccccc3)[C@H](c3ccccc3)OC(=O)[C@H]1[C@@H]2C(=O)NC[C@H](O)c1ccccc1 | 0.0076 |
| CN(C)CCCC[C@@H]1NC(=O)[C@H]2C[C@@H](C(=O)NCCCCCNC(=O)CS)[C@@H](c3ccc(O)cc3)N2C1=O | -0.358 |
| COc1ccc([Si](C)(C)[C@@H]2[C@@H](CC(=O)N3Cc4ccccc4C[C@H]3CO)O[C@]3(C(=O)N(Cc4cccc(N5C(=O)COc6ccccc65)c4)c4ccccc43)[C@H]2C)cc1 | -0.751 |
| C=CCOC(=O)[C@H]1[C@@H]2C(=O)O[C@@H](c3ccccc3)[C@@H](c3ccccc3)N2[C@@H](c2ccc(OCCOC(=O)[C@H]3C[C@H]4C(=O)N[C@@H](CCCC[N+](C)(C)C)C(=O)N4[C@H]3c3ccc(O)cc3)cc2)[C@]12C(=O)Nc1ccccc12 | 0.896 |
| [N-]=[N+]=NCc1ccccc1C[C@]1(C(=O)NCCN2CCOCC2)N=C(c2ccc(OCCCO)cc2)O[C@H]1c1ccccc1CN=[N+]=[N-] | -0.403 |
| COc1cc2c(cc1O)C(c1ccc(CN3CCCC3)cc1)N(Cc1sc3ccccc3c1Cl)CC2 (stereo unspecified) | 0.835 |
| NC(=O)[C@]1(Cc2ccccc2)N=C(c2ccc(OCCCO)cc2)O[C@@H]1c1ccccc1 | -0.784 |
| O=C1O[C@H](c2ccccc2)[C@H](c2ccccc2)N2[C@H]1[C@@H](C(=O)NC[C@H](O)c1ccccc1)[C@]1(C(=O)Nc3ccc(C#CC4(O)CCCCCC4)cc31)[C@H]2c1ccccc1OCCO | -1.39 |
| O=P(NCC1(CC2(c3ccccc3)CO2)CC1)(c1ccccc1)c1ccccc1 (stereo unspecified) | 0.316 |
| COCCCNC(=O)[C@@]1(Cc2ccccc2I)c2ccccc2C(=O)N(Cc2ccccc2)[C@H]1c1ccc(CO)cc1 | 1.67 |
| CN1C(=O)C2C=CC(C(O)C=Cc3ccc([N+](=O)[O-])cc3)N(N3CCCCC3)C2C1=O (stereo unspecified) | -0.244 |
| O=c1cccc(-c2ccccc2)o1 | 0.299 |
| COC(=O)[C@@]1(Cc2ccc(OC)cc2)[C@H]2c3cc(C(=O)N4CCCC4)n(C[C@H](O)CO)c3C[C@H]2CN1C(=O)c1ccccc1 | 0.336 |
| Cc1ccc(S[C@]2(C(=O)NCCN3CCOCC3)CC(=O)N(C3CCCCC3)[C@@H]2c2ccc(CO)cc2)cc1 | 1.51 |
| COCCOC(=O)N1C(=O)[C@@]2(c3cc(C#CC4=CCCCC4)ccc31)[C@H](c1ccc(OCCO)cc1)N1[C@H](c3ccccc3)[C@H](c3ccccc3)OC(=O)[C@H]1[C@@H]2C(=O)Nc1nc2ccccc2s1 | -0.057 |
| Cc1ccc(S[C@]2(C(=O)NCC(C)C)CC(=O)N(Cc3ccccc3)[C@@H]2c2ccc(CO)cc2)cc1 | 1.23 |
| C=CCN1C(=O)[C@@]2(O[C@@H](CCO)[C@H]([Si](C)(C)c3ccc(OC)cc3)[C@H]2C)c2cc(N3C(=O)COc4ccccc43)ccc21 | -5.02 |
| COc1ccc([Si](C)(C)[C@H]2[C@H](CC(=O)N3Cc4ccccc4C[C@H]3CO)O[C@@]3(C(=O)N(Cc4cccc(I)c4)c4ccccc43)[C@@H]2C)cc1 | -1.84 |
| COc1ccc([Si](C)(C)[C@H]2[C@H](CC(=O)N3CCC[C@H]3CO)O[C@@]3(C(=O)N(Cc4cccc(N5CCC5=O)c4)c4ccccc43)[C@@H]2C)cc1 | -1.2 |
| O=C(CS)NCCCCCCNC(=O)[C@H]1C[C@H]2C(=O)N3CCC[C@H]3C(=O)N2[C@H]1c1ccc(O)cc1 | 0.985 |
| CC(C)NC(=O)[C@@]1(c2ccc([N+](=O)[O-])cc2)CC(=O)N(C(C)C)[C@@H]1c1ccc(CO)cc1 | -1.1 |
| CCCNC(=O)[C@@]1(C)c2ccccc2C(=O)N(Cc2ccc(OC(F)(F)F)cc2)[C@H]1c1ccc(CO)cc1 | -0.658 |

====

Listing: z-score of selected compounds
ASSAY_METHOD_TEXT: growth of efflux-deficient E. coli DRC39 – strain DRC39, OD650, 24 h, E. coli filamentation inducers, primary screen (AID 1178);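 note: growth measured as culture turbidity by optical density at 650 nm; test concentration not given here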
CONDITION_INFO: E. coli DRC39 acrAB, higher = more signal, called active from +8 up or from −8 down

| SMILES_NOTATION | z-score |
| --- | --- |
| [N-]=[N+]=NCc1ccccc1C[C@@]1(C(=O)NCc2ccccc2)N=C(c2ccc(OCCCO)cc2)O[C@@H]1c1ccccc1CN=[N+]=[N-] | 0.561 |
| O=C1O[C@H](c2ccccc2)[C@H](c2ccccc2)N2[C@H]1[C@@H](C(=O)NC[C@H](O)c1ccccc1)[C@]1(C(=O)Nc3ccc(C#CC4(O)CCCCCC4)cc31)[C@H]2c1ccccc1OCCO | 0.408 |
| C=CCN1C(=O)[C@@]2(O[C@@H](CCO)[C@H]([Si](C)(C)c3ccc(OC)cc3)[C@H]2C)c2cc(N3C(=O)COc4ccccc43)ccc21 | 1.09 |
